Where these numbers come from: patent US10987349B2

# EXPERIMENTAL_TARGET: BRD2 BD1 (Homo sapiens, UniProt P25440)
# Construct: BRD2 BD1, BRD3 BD1 and BRD4 BD1 (Cisbio)
# Sequence (P25440 74-180 limits assumed): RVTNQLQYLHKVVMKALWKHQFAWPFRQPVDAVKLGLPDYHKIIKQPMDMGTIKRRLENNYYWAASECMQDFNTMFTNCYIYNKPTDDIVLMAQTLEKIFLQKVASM
# ASSAY_METHOD_TEXT: Binding assay, BRD2 BD1 to acetylated histone H4 Peptide-Biotin (EPIgeneous Binding Domain Kit A)
I'd appreciate it if you could supply IC50 values for the items below.
Answers are plain numbers, in nM.

Reference set, count: 4
{"SMILES_TEXT": "CCn1c(=O)cc(C2CCN(C(C)=O)CC2)c2cc(C(=O)N(C)c3ccc(C)cc3)ccc21", "UNIT_LABEL": "nM", "IC50": 45}
{"SMILES_TEXT": "CCn1c(=O)cc(C2CCN(C)CC2)c2cc(C(=O)N(C)c3ccc(C)cc3)ccc21", "UNIT_LABEL": "nM", "IC50": 9}
{"SMILES_TEXT": "CCn1c(=O)cc(N2CCOCC2)c2cc(-n3c(-c4ccc(Cl)cc4)cn(C)c3=O)ccc21", "UNIT_LABEL": "nM", "IC50": 144}
{"SMILES_TEXT": "CCn1c(=O)cc(N2CCOCC2)c2cc(-n3c(-c4ccc(Cl)cc4)c[nH]c3=O)ccc21", "UNIT_LABEL": "nM", "IC50": 61}

// next entry
Q. Fill blank: measured IC50 of the compound "CCn1c(=O)cc(C2CCN(C)CC2)c2cc(C(=O)N(C)c3ccc4c(c3)CCC4)ccc21" is ____.
A. 5

====

I'd appreciate it if you could supply inhibition at 0.3 µM values for the items below.
# EXPERIMENTAL_TARGET: BRD4 BD1 (Homo sapiens)
# Construct: BRD2 BD1, BRD3 BD1 and BRD4 BD1 (Cisbio); purchased Cisbio
# ASSAY_METHOD_TEXT: Binding assay, BRD4 BD1 to acetylated histone H4 Peptide-Biotin (EPIgeneous Binding Domain Kit A)
# CONDITION_DETAILS: test compound at 300 nmol/L; read-out: Binding inhibition percentage BRD4 BD1
Give bare numbers, in %.

Reference set, count: 3
{"COMPOUND": "CCn1c(=O)cc(C2CC2)c2cc(-c3nccnc3-c3ccccc3)ccc21", "EXPERIMENTAL_TARGET": "BRD4 BD1 (Homo sapiens)", "UNIT_LABEL": "%", "inhibition at 0.3 µM": 93}
{"COMPOUND": "CCn1c(=O)cc(N2CCOCC2)c2cc(-n3c(-c4ccccc4)cn(CCN4CCOCC4)c3=O)ccc21", "EXPERIMENTAL_TARGET": "BRD4 BD1 (Homo sapiens)", "UNIT_LABEL": "%", "inhibition at 0.3 µM": 94}
{"COMPOUND": "CCn1c(=O)cc(C2CCN(C)CC2)c2cc(C(=O)N(C)c3ccc(C)c(F)c3)ccc21", "EXPERIMENTAL_TARGET": "BRD4 BD1 (Homo sapiens)", "UNIT_LABEL": "%", "inhibition at 0.3 µM": 95}

Give measured inhibition at 0.3 µM for every item shown.
1. CCn1c(=O)cc(C2CC2)c2cc(-c3cccnc3-c3ccccc3)ccc21
2. CCn1c(=O)cc(N2CCOCC2)c2cc(-n3c(-c4ccccc4)cn(C(C)C)c3=O)ccc21
3. CCn1c(=O)cc(C2CCN(C)CC2)c2cc(C(=O)N(C)c3ccc(C)c(C)c3)ccc21
4. CCn1c(=O)cc(N2CCOCC2)c2cc(-c3ccccc3-c3ccccc3)ccc21

A.
93
94
94
64

Give measured inhibition at 0.3 µM for every item shown.
1. CCn1c(=O)cc(N2CCOCC2)c2cc(-n3c(-c4ccc(Cl)cc4)cn(C)c3=O)ccc21
2. Cc1ccc(N(C)C(=O)c2ccc3c(c2)c(C2CCN(C)CC2)cc(=O)n3C)cc1
3. CCn1c(=O)cc(C2CC2)c2cc(-n3c(-c4ccc(C(F)(F)F)cc4)cn(C)c3=O)ccc21
4. CCn1c(=O)cc(N2CCOCC2)c2cc(N3C(=O)CC[C@H]3c3ccccc3)ccc21
5. CCn1c(=O)cc(C2CC2)c2cc(-n3c(-c4ccc(Cl)cc4)c[nH]c3=O)ccc21
6. CCn1c(=O)cc(C)c2cc(-c3cccnc3-c3ccccc3)ccc21
7. CCN1CCC(c2cc(=O)n(CC)c3ccc(C(=O)N(C)c4ccccc4)cc23)CC1
8. CCn1c(=O)cc(C2CC2)c2cc(-n3c(-c4ccc(Cl)cc4)cn(C)c3=O)ccc21

A.
67
95
68
92
77
85
94
71

Give measured inhibition at 0.3 µM for every item shown.
1. CCn1c(=O)cc(C2CC2)c2cc(N(C)C(=O)c3ccccc3)ccc21
2. CCn1c(=O)cc(C2CC2)c2cc(-n3c(C)cc(=O)n3-c3ccccc3)ccc21 [Example 282b]

A.
[85, 91]
